Reference source: the supplement of paper PMC5998384

Test system: HeLa Kyoto
Experiment: melting temperature (median over replicates), in situ; higher = more thermally stable
Conditions: cell cycle stage: G1/S
As shown below, each of these sequences has a reported melting temperature value.
Kindly provide the numeric value in °C only, without the unit symbol.

>  <Sequence>
MESGFTSKDTYLSHFNPRDYLEKYYKFGSRHSAESQILKHLLKNLFKIFCLDGVKGDLLIDIGSGPTIYQLLSACESFKEIVVTDYSDQNLQELEKWLKKEPEAFDWSPVVTYVCDLEGNRVKGPEKEEKLRQAVKQVLKCDVTQSQPLGAVPLPPADCVLSTLCLDAACPDLPTYCRALRNLGSLLKPGGFLVIMDALKSSYYMIGEQKFSSLPLGREAVEAAVKEAGYTIEWFEVISQSYSSTMANNEGLFSLVARKLSRPL [NNMT]

>  <Observed Property>
melting temperature

>  <Output Unit>
°C

>  <Recorded Measurement>
53.4

$$$$

Problem: Given the entry MAANKSKGQSSLALHKVIMVGSGGVGKSALTLQFMYDEFVEDYEPTKADSYRKKVVLDGEEVQIDILDTAGQEDYAAIRDNYFRSGEGFLLVFSITEHESFTATAEFREQILRVKAEEDKIPLLVVGNKSDLEERRQVPVEEARSKAEEWGVQYVETSAKTRANVDKVFFDLMREIRTKKMSENKDKNGKKSSKNKKSFKERCCLL [RALB] , report its measured melting temperature.
Result: 57

Problem: Given the entry MDNYADLSDTELTTLLRRYNIPHGPVVGSTRRLYEKKIFEYETQRRRLSPPSSSAASSYSFSDLNSTRGDADMYDLPKKEDALLYQSKGYNDDYYEESYFTTRTYGEPESAGPSRAVRQSVTSFPDADAFHHQVHDDDLLSSSEEECKDRERPMYGRDSAYQSITHYRPVSASRSSLDLSYYPTSSSTSFMSSSSSSSSWLTRRAIRPENRAPGAGLGQDRQVPLWGQLLLFLVFVIVLFFIYHFMQAEEGNPF [EMD] , report its measured melting temperature.
Result: 52.4

###

As shown below, each of these sequences has a reported thermal stability score value.
Tested on: HeLa Kyoto
Test: thermal stability score vs G1/S (z-score of summed log2 fold changes over temperatures); higher = more thermally stable than in G1/S
Conditions: cell cycle stage: mitosis
Just the number, please, no unit after it.

Problem: Given the entry MGAFLDKPKMEKHNAQGQGNGLRYGLSSMQGWRVEMEDAHTAVIGLPSGLESWSFFAVYDGHAGSQVAKYCCEHLLDHITNNQDFKGSAGAPSVENVKNGIRTGFLEIDEHMRVMSEKKHGADRSGSTAVGVLISPQHTYFINCGDSRGLLCRNRKVHFFTQDHKPSNPLEKERIQNAGGSVMIQRVNGSLAVSRALGDFDYKCVHGKGPTEQLVSPEPEVHDIERSEEDDQFIILACDGIWDVMGNEELCDFVRSRLEVTDDLEKVCNEVVDTCLYKGSRDNMSVILICFPNAPKVSPEAVKKEAELDKYLECRVEEIIKKQGEGVPDLVHVMRTLASENIPSLPPGGELASKRNVIEAVYNRLNPYKNDDTDSTSTDDMW [PPM1A] , report its measured thermal stability score.
Result: -0.132

Problem: Given the entry MTKLAQWLWGLAILGSTWVALTTGALGLELPLSCQEVLWPLPAYLLVSAGCYALGTVGYRVATFHDCEDAARELQSQIQEARADLARRGLRF [DPM3] , report its measured thermal stability score.
Result: -4.14

Problem: Given the entry MSEGDSVGESVHGKPSVVYRFFTRLGQIYQSWLDKSTPYTAVRWVVTLGLSFVYMIRVYLLQGWYIVTYALGIYHLNLFIAFLSPKVDPSLMEDSDDGPSLPTKQNEEFRPFIRRLPEFKFWHAATKGILVAMVCTFFDAFNVPVFWPILVMYFIMLFCITMKRQIKHMIKYRYIPFTHGKRRYRGKEDAGKAFAS [RER1] , report its measured thermal stability score.
Result: -1.81

Problem: Given the entry MPRPGSAQRWAAVAGRWGCRLLALLLLVPGPGGASEITFELPDNAKQCFYEDIAQGTKCTLEFQVITGGHYDVDCRLEDPDGKVLYKEMKKQYDSFTFTASKNGTYKFCFSNEFSTFTHKTVYFDFQVGEDPPLFPSENRVSALTQMESACVSIHEALKSVIDYQTHFRLREAQGRSRAEDLNTRVAYWSVGEALILLVVSIGQVFLLKSFFSDKRTTTTRVGS [TMED7] , report its measured thermal stability score.
Result: 0.528

Problem: Given the entry MPFLELDTNLPANRVPAGLEKRLCAAAASILGKPADRVNVTVRPGLAMALSGSTEPCAQLSISSIGVVGTAEDNRSHSAHFFEFLTKELALGQDRILIRFFPLESWQIGKIGTVMTFL [DDT] , report its measured thermal stability score.
Result: -2.27

Problem: Given the entry MAGSSEEAPDYGRGVVIMDDWPGYDLNLFTYPQHYYGDLEYVLIPHGIIVDRIERLAKDIMKDIGYSDIMVLCVLKGGYKFCADLVEHLKNISRNSDRFVSMKVDFIRLKSYRNDQSMGEMQIIGGDDLSTLAGKNVLIVEDVVGTGRTMKALLSNIEKYKPNMIKVASLLVKRTSRSDGFRPDYAGFEIPNLFVVGYALDYNEYFRDLNHICVINEHGKEKYRV [PRTFDC1] , report its measured thermal stability score.
Result: -0.334

Problem: Given the entry MEFDLGAALEPTSQKPGVGAGHGGDPKLSPHKVQGRSEAGAGPGPKQGHHSSSDSSSSSSDSDTDVKSHAAGSKQHESIPGKAKKPKVKKKEKGKKEKGKKKEAPH [IMUP] , report its measured thermal stability score.
Result: -1.94

###

Test system: HeLa Kyoto
Assay: solubility change mitosis vs G1/S (difference of NP-40 vs SDS log2 ratios) (log2 ratio difference); higher = more soluble in mitosis
Observed Property: solubility change mitosis (log2)
Just the number, please, no unit after it.

>  <Sequence>
MAASGKLSTCRLPPLPTIREIIKLLRLQAAKQLSQNFLLDLRLTDKIVRKAGNLTNAYVYEVGPGPGGITRSILNADVAELLVVEKDTRFIPGLQMLSDAAPGKLRIVHGDVLTFKVEKAFSESLKRPWEDDPPNVHIIGNLPFSVSTPLIIKWLENISCRDGPFVYGRTQMTLTFQKEVAERLAANTGSKQRSRLSVMAQYLCNVRHIFTIPGQAFVPKPEVDVGVVHFTPLIQPKIEQPFKLVEKVVQNVFQFRRKYCHRGLRMLFPEAQRLESTGRLLELADIDPTLRPRQLSISHFKSLCDVYRKMCDEDPQLFAYNFREELKRRKSKNEEKEEDDAENYRL [TFB1M]

>  <Assayed System>
HeLa Kyoto

>  <solubility change mitosis (log2)>
0.122

$$$$

Problem: Given the entry MAAAAASLRGVVLGPRGAGLPGARARGLLCSARPGQLPLRTPQAVALSSKSGLSRGRKVMLSALGMLAAGGAGLAMALHSAVSASDLELHPPSYPWSHRGLLSSLDHTSIRRGFQVYKQVCASCHSMDFVAYRHLVGVCYTEDEAKELAAEVEVQDGPNEDGEMFMRPGKLFDYFPKPYPNSEAARAANNGALPPDLSYIVRARHGGEDYVFSLLTGYCEPPTGVSLREGLYFNPYFPGQAIAMAPPIYTDVLEFDDGTPATMSQIAKDVCTFLRWASEPEHDHRKRMGLKMLMMMALLVPLVYTIKRHKWSVLKSRKLAYRPPK [CYC1] , report its measured solubility change mitosis (log2).
Result: -0.106

###

System: HeLa Kyoto
Assay: solubility in G1/S (NP-40 vs SDS abundance) (log2 ratio); higher = more soluble
Conditions: cell cycle stage: G1/S
Observed Property: solubility in G1/S (log2)
Just the number, please, no unit after it.

// below: answered sequences
>  <Sequence>
MAAVKDSCGKGEMATGNGRRLHLGIPEAVFVEDVDSFMKQPGNETADTVLKKLDEQYQKYKFMELNLAQKKRRLKGQIPEIKQTLEILKYMQKKKESTNSMETRFLLADNLYCKASVPPTDKVCLWLGANVMLEYDIDEAQALLEKNLSTATKNLDSLEEDLDFLRDQFTTTEVNMARVYNWDVKRRNKDDSTKNKA [VBP1]

>  <Observed Property>
solubility in G1/S (log2)

>  <Recorded Measurement>
0.453

$$$$
>  <Sequence>
MDKVCAVFGGSRGIGRAVAQLMARKGYRLAVIARNLEGAKAAAGDLGGDHLAFSCDVAKEHDVQNTFEELEKHLGRVNFLVNAAGINRDGLLVRTKTEDMVSQLHTNLLGSMLTCKAAMRTMIQQQGGSIVNVGSIVGLKGNSGQSVYSASKGGLVGFSRALAKEVARKKIRVNVVAPGFVHTDMTKDLKEEHLKKNIPLGRFGETIEVAHAVVFLLESPYITGHVLVVDGGLQLIL [CBR4]

>  <Observed Property>
solubility in G1/S (log2)

>  <Recorded Measurement>
0.0654

$$$$
>  <Sequence>
MVPPVQVSPLIKLGRYSALFLGVAYGATRYNYLKPRAEEERRIAAEEKKKQDELKRIARELAEDDSILK [ATP5I]

>  <Observed Property>
solubility in G1/S (log2)

>  <Recorded Measurement>
-0.147

$$$$
>  <Sequence>
MAAPEPLRPRLCRLVRGEQGYGFHLHGEKGRRGQFIRRVEPGSPAEAAALRAGDRLVEVNGVNVEGETHHQVVQRIKAVEGQTRLLVVDQETDEELRRRQLTCTEEMAQRGLPPAHDPWEPKPDWAHTGSHSSEAGKKDVSGPLRELRPRLCHLRKGPQGYGFNLHSDKSRPGQYIRSVDPGSPAARSGLRAQDRLIEVNGQNVEGLRHAEVVASIKAREDEARLLVVDPETDEHFKRLRVTPTEEHVEGPLPSPVTNGTSPAQLNGGSACSSRSDLPGSDKDTEDGSAWKQDPFQESGLHLSPTAAEAKEKARAMRVNKRAPQMDWNRKREIFSNF [SLC9A3R2]

>  <Observed Property>
solubility in G1/S (log2)

>  <Recorded Measurement>
0.422

$$$$
>  <Sequence>
MTSMTQSLREVIKAMTKARNFERVLGKITLVSAAPGKVICEMKVEEEHTNAIGTLHGGLTATLVDNISTMALLCTERGAPGVSVDMNITYMSPAKLGEDIVITAHVLKQGKTLAFTSVDLTNKATGKLIAQGRHTKHLGN [ACOT13]

>  <Observed Property>
solubility in G1/S (log2)

>  <Recorded Measurement>
0.372

$$$$

Problem: Given the entry MAVSESQLKKMVSKYKYRDLTVRETVNVITLYKDLKPVLDSYVFNDGSSRELMNLTGTIPVPYRGNTYNIPICLWLLDTYPYNPPICFVKPTSSMTIKTGKHVDANGKIYLPYLHEWKHPQSDLLGLIQVMIVVFGDEPPVFSRPISASYPPYQATGPPNTSYMPGMPGGISPYPSGYPPNPSGYPGCPYPPGGPYPATTSSQYPSQPPVTTVGPSRDGTISEDTIRASLISAVSDKLRWRMKEEMDRAQAELNALKRTEEDLKKGHQKLEEMVTRLDQEVAEVDKNIELLKKKDEELSSALEKMENQSENNDIDEVIIPTAPLYKQILNLYAEENAIEDTIFYLGEALRRGVIDLDVFLKHVRLLSRKQFQLRALMQKARKTAGLSDLY [TSG101] , report its measured solubility in G1/S (log2).
Result: 0.617

Problem: Given the entry MWVCSTLWRVRTPARQWRGLLPASGCHGPAASSYSASAEPARVRALVYGHHGDPAKVVELKNLELAAVRGSDVRVKMLAAPINPSDINMIQGNYGFLPELPAVGGNEGVAQVVAVGSNVTGLKPGDWVIPANAGLGTWRTEAVFSEEALIQVPSDIPLQSAATLGVNPCTAYRMLMDFEQLQPGDSVIQNASNSGVGQAVIQIAAALGLRTINVVRDRPDIQKLSDRLKSLGAEHVITEEELRRPEMKNFFKDMPQPRLALNCVGGKSSTELLRQLARGGTMVTYGGMAKQPVVASVSLLIFKDLKLRGFWLSQWKKDHSPDQFKELILTLCDLIRRGQLTAPACSQVPLQDYQSALEASMKPFISSKQILTM [MECR] , report its measured solubility in G1/S (log2).
Result: 0.282
